Test system: COLO 205 colon
Assay Explanation: NCI tumour cell line growth inhibition, 48 h
Reported Metric: TGI

Cc1c(CCO)c(=O)n2c([nH]c3ccccc32)c1C#N	> 100 µM
O=C1NC(=O)C(=Nc2cccc3c(=O)[nH][nH]c(=O)c23)C(c2nc3ccccc3s2)C1=O (stereo not given)	> 100 µM
CCOC(=O)c1sc2nc(SC)nc3c2c1NCN3c1ccc(F)c(F)c1	> 100 µM
CSCCCS/C1=C/CCCCCCCCCC1	> 100 µM
CCOC(=O)C[n+]1cccc(C2(c3cc4ccccc4[nH]3)OCCO2)c1	> 100 µM

[Q] What value of TGI has been reported for the following compound? Cc1ccc(NC(=O)C(Cc2c[nH]c3ccccc23)NC(=O)Oc2ccccc2)cc1C (stereo not given)
[A] > 100 µM

[Q] For the compound "COc1cc(C2=NNC(=O)c3ccccc3N2c2nc(-c3cccs3)nc3ccc(Br)cc23)cc(OC)c1OC" , what TGI is on record?
[A] > 100 µM

[Q] Name the reported TGI value associated with the compound "COc1ccc(S(=O)(=O)NC2=NCCN2C(=S)SN2CCn3c2nsc3=S)cc1"
[A] 27.4 µM

[Q] Return reported TGI; argument: "Clc1ccc(-c2csc(Nc3cccc(-c4csc(-c5ccccc5)n4)c3)n2)cc1"
[A] 23.1 µM

[Q] Using the record for "CN(C)c1ccc(/C=C/c2ccc(/C=C/c3ccc(N(C)C)cc3)cc2)cc1" , report its TGI.
[A] > 100 µM

====

Tested on: CAKI-1 renal
Assay Explanation: NCI tumour cell line growth inhibition, 48 h
Reported Metric: TGI

Check out these entries, answers already filled in.
O=C(O)C1CC2(C1)CC(C(=O)O)C2 (centres undefined)	> 100 µM
CC(C)N1CCN(Cc2ccc3c(NNC(=O)c4ccccc4)nc4cc(F)ccc4n23)CC1	6.26 µM
COC(=O)C1=C(c2ccc(OC)c(OC)c2)OC(c2cc(OC)c(OC)c(OC)c2)C1 (centres undefined)	> 100 µM
CC(=O)OC(Cc1ccc2ccccc2n1)(C(F)(F)F)C(F)(F)F	2.96 µM
O=c1oc2ccc([N+](=O)[O-])cc2c(Nc2ccc3c(c2)Sc2ccccc2O3)c1[N+](=O)[O-]	50.6 µM
COc1cc(CNc2cnc3cc(N)ccc3n2)cc(OC)c1OC	> 100 µM
CCOC(=O)C[n+]1cccc(C2(c3cc4ccccc4[nH]3)OCCO2)c1	> 100 µM
CCCCCCCC(CC(=O)NC(CO)C(=O)NC(CO)CC(C)C)OC(=O)CC(CCCCCCC)OC(=O)CC(CCCCCCC)OC1OC(C)C(O)C(OC2OC(C)C(O)C(O)C2OC(C)=O)C1O (centres undefined)	28.3 µM

// switching to the query compound
[Q] Using the record for "C(=N\Nc1ccc(-c2nc3ccccc3[nH]2)cc1)/c1c(-c2ccc(Cc3ccccc3)cc2)[nH]c2ccccc12" , report its TGI.
[A] > 59.8 µM

====

System: A498 renal
Assay Explanation: NCI tumour cell line growth inhibition, 48 h
Reported Metric: TGI (µM)
// note: answer is a bare numeric in µM

O=C1C=CC(=C(c2ccc(O)cc2)c2ccc(O)cc2)C=C1	32
Cc1ccc(NC(=O)C(Cc2c[nH]c3ccccc23)NC(=O)Oc2ccccc2)cc1C (centres undefined)	88.4

[Q] Under A498 renal: TGI value of "Oc1ccc(O)c(-c2cc(-c3ccc(Cl)cc3)nn2-c2ccccc2)c1" ?
[A] 13.8

[Q] Any idea what TGI came out for "Nc1nc(N)c(C=Nc2ccc(Br)cc2)c(Nc2ccc(Br)cc2)n1" on A498 renal?
[A] 22.4

The measured values listed here are drawn from PubChem BioAssay (NCI).
